Test: qHTS to identify inhibitors of the type 1 interferon - major histocompatibility complex class I in skeletal muscle: primary screen against the NCATS Mechanism Interrogation Plate v5.0 (MIPE) Libary (AID 1347411); note: nearly all actives have a fitted effect of over 65% in size
Conditions: iHSKM cells + IFN-b, HiBiT-tagged MHC-I luminescence, 24 h; series mostly up to 45.8 µM
Inconclusive results are not listed. Calls of active or inactive are those of the source. Calls come from the whole dose curve; as a rule, active = well fitted inhibition curve with a large enough effect; inconclusive = small, poorly fitted or top-dose-only effect; inactive = no such curve, though single readings can be large or run the other way.
Pick one and only one: y (active), n (inactive)

COMPOUND	ASSIGNED_CATEGORY
CC(C)(CO)n1cc(C(=O)c2cncc(NC(=O)Cc3ccc(Cl)cn3)c2)c2cnc(N)nc21	n
Cc1ccc(NS(=O)(=O)c2ccc3c(c2)C2C=CCC2C(c2ccc(C(=O)O)cc2)N3)cc1C (stereo not drawn)	n

-- ask Entry O=C(CCNC(=O)c1ccc(OC(F)(F)F)cc1)N[C@@H]1CCCc2ccccc21 : call = ?
-- reply n

-- ask Entry Cc1ccc(S(=O)(=O)Nc2cc(-c3ccc(C#N)s3)ccc2C)cc1 : call = ?
-- reply n

-- ask Entry Cc1c(NC(=O)c2cc(C(N)=O)nc3cc(F)ccc23)c(C(F)(F)F)nn1Cc1ccc(C(C)(C)C)cc1 : call = ?
-- reply n

-- ask Entry CC(C)(O)CS(=O)(=O)Nc1ccc2c(c1)CCN(C(=O)COc1cccnc1)C2 : call = ?
-- reply n

-- ask Entry C[C@H]1CN(C2COC2)CCN1c1ccc(Nc2cc(-c3ccnc(N4CCn5c(cc6c5CC(C)(C)C6)C4=O)c3CO)cn(C)c2=O)nc1 : call = ?
-- reply n

-- ask Entry CC(C)Oc1ccc(-c2nc(-c3cccc4c3CC[C@@H]4NCCO)no2)cc1C#N : call = ?
-- reply n

-- ask Entry COC(=O)/C=C/C(=O)OC : call = ?
-- reply n

-- ask Entry CNCCCOc1cc(F)c(-c2c(Cl)nc3ncnn3c2N[C@@H](C)C(F)(F)F)c(F)c1 : call = ?
-- reply n

-- ask Entry C=C1CCC[C@]2(C)C=C3OC(=O)C(C)=C3C[C@@H]12 : call = ?
-- reply n

-- ask Entry OC[C@H]1O[C@@H](S[C@@H]2O[C@H](CO)[C@H](O)[C@H](n3cc(-c4cccc(F)c4)nn3)[C@H]2O)[C@H](O)[C@@H](n2cc(-c3cccc(F)c3)nn2)[C@H]1O : call = ?
-- reply n

-- ask Entry NS(=O)(=O)c1ccc(Cc2c(-c3cccc(-c4ccccc4)c3)nn(-c3nc(C(=O)O)cs3)c2CC2CC2)cc1 : call = ?
-- reply n

-- ask Entry O=C(C[C@@H]1C/C=C\CCC(=O)O[C@H](c2ccccc2)CNC1=O)NCc1ccc(Cl)cc1 : call = ?
-- reply n

-- ask Entry Cc1cccc(/C=N/Nc2cc(N3CCOCC3)nc(OCCc3ccccn3)n2)c1 : call = ?
-- reply n

-- ask Entry CN(C)C[C@@H]1CCn2cc(c3ccccc32)C2=C(C(=O)NC2=O)c2cn(c3ccccc23)CCO1 : call = ?
-- reply y

-- ask Entry Cc1cc(C)c2c(c1)[C@@H](N(Cc1cc(C(F)(F)F)cc(C(F)(F)F)c1)c1nnn(C)n1)CCCN2CC1CCC(C(=O)O)CC1 (stereo partly drawn) : call = ?
-- reply n

-- ask Entry Nc1nc(F)nc2c1ncn2C1OC(COP(=O)(O)O)C(O)C1O (stereo not drawn) : call = ?
-- reply n
